Just for reference, ChEMBL document CHEMBL3751680 is where these values come from.

Entries and their Activity values follow.
# Organism: Canis lupus familiaris
# assay_details: Binding affinity to hound bone powder assessed as reduction in bound compound level at 50 uM after 1 hr by NMR spectroscopic analysis relative to control
# Design: scale not given: the % may be the effect or the level left

smiles_representation	Activity [%]
O=C(c1ccc(O)cc1)c1c(-c2ccc(O)cc2)sc2cc(O)ccc12	26.4
O=C(c1ccc(OCCN2CCCCC2)cc1)c1c(-c2ccc(O)cc2)sc2cc(O)ccc12	54.2
NCCCC(O)(P(=O)(O)O)P(=O)(O)O	41.1
C[C@]12CC[C@@H]3c4ccc(O)cc4CC[C@H]3[C@@H]1CC[C@@H]2O	5.3
COc1ccc2c(C(=O)c3ccc(OCCN4CCCCC4)cc3)c(-c3ccc(O)cc3)sc2c1	21
